All figures here come from patent US9771389B2.

# Tested on: Xanthomonas campestris KB88
# Test name: Paper disc assay, Xanthomonas campestris
# Format: cell-based
# Condition info: X; 0.1 mg/6 mm disc
Endpoint name: Inhibition zone (mm)
# value in mm; strip the unit string

Lab note: measured Inhibition zone of CC[C@H]1OC(=O)C[C@@H](O)[C@H](C)[C@@H](O[C@@H]2O[C@H](C)[C@@H](O)[C@H](N(C)C)[C@H]2O)[C@@H](CCn2cc(-c3ccsc3)nn2)C[C@@H](C)C(=O)/C=C/C(C)=C/[C@@H]1CO[C@@H]1O[C@H](C)[C@@H](O)[C@@H](OC)[C@H]1OC was 7

Query CC[C@H]1OC(=O)C[C@@H](O)[C@H](C)[C@@H](O[C@@H]2O[C@H](C)[C@@H](O)[C@H](N(C)C)[C@H]2O)[C@@H](CCN2C[C@H](C)C[C@H](C)C2)C[C@@H](C)C(=O)/C=C/C(C)=C/[C@@H]1CO[C@@H]1O[C@H](C)[C@@H](O)[C@@H](OC)[C@H]1OC [Tilmicosin, tilmicosin, reference compound] yields Inhibition zone of 12

Lab book: Inhibition zone of CC[C@H]1OC(=O)C[C@@H](O)[C@H](C)[C@@H](O[C@@H]2OC(C)[C@@H](O)C(N(C)C)C2O)[C@@H](CCn2cc(-c3ccc(N(C)C)cc3)nn2)C[C@@H](C)C(=O)/C=C/C(C)=C/[C@@H]1CO[C@@H]1OC(C)[C@@H](O)C(OC)C1OC (stereo partly drawn) noted as 7

Looking up CC[C@H]1OC(=O)C[C@@H](O)[C@H](C)[C@@H](O[C@@H]2OC(C)[C@@H](O)C(N(C)C)C2O)[C@@H](CCn2cc(-c3ccccc3)nn2)C[C@@H](C)C(=O)/C=C/C(C)=C/[C@@H]1CO[C@@H]1OC(C)[C@@H](O)C(OC)C1OC (stereo partly drawn) , I see its Inhibition zone listed as 8

Per the records, this molecule ( CC[C@H]1OC(=O)C[C@@H](O)[C@H](C)[C@@H](O[C@@H]2OC(C)[C@@H](O)C(N(C)C)C2O)[C@@H](CCn2cc(-c3ccccn3)nn2)C[C@@H](C)C(=O)/C=C/C(C)=C/[C@@H]1CO[C@@H]1OC(C)[C@@H](O)C(OC)C1OC (stereo partly drawn) ) has Inhibition zone equal to 7

The molecule listed as CC[C@H]1OC(=O)C[C@@H](O)[C@H](C)[C@@H](O[C@@H]2OC(C)[C@@H](O)C(N(C)C)C2O)[C@@H](CCn2cc(CCCCCl)nn2)C[C@@H](C)C(=O)/C=C/C(C)=C/[C@@H]1CO[C@@H]1OC(C)[C@@H](O)C(OC)C1OC (stereo partly drawn) has a reported Inhibition zone of 7
